System: amyloid peptide 1-40 release
Assay: Test 4: Inhibition of Cellular Release of Amyloid Peptide 1-40
Assay type: cell-based
Settings: Cricetulus griseus; Chinese hamster ovary cells transfected with the human gene for amyloid precursor protein, 24 hours; read-out: Amyloid-β1-40 release IC50
Where a name gives a salt, the structure may show the parent alone.
readout-label: IC50 (nM)

• CC1(c2cccc(Nc3nsc4cc(Br)ccc34)c2)COCC(N)=N1 (centres unmarked) = 2900

A: CCOc1cccnc1Nc1ccc(F)c([C@]2(C(F)F)COCC(N)=N2)c1
B: Cn1nc(Nc2cccc([C@]3(C)COCC(N)=N3)c2)c2ccccc21
C: C[C@@]1(c2cc(Nc3ncnc4cc(Cl)cnc34)ccc2F)CO[C@@](C)(C(F)(F)F)C(N)=N1 [Example 23, di-hydrochloride]
D: NC1=N[C@@](c2cc(Nc3ncccc3OCC(F)F)ccc2F)(C(F)F)COC1
Problem: Hey, quick one: sort these by IC50, low to high? Your task in answering is to list the labels in the requested order.
Result: C, A, D, B

* * *

Target: UniProtKB Q9Y5Z0
Assay: Test 2: Inhibition of Human BACE-2
Type: biochemical
Details: recombinant BACE-2, pH 4.5, fluorescence-quenched substrate
Method: Test 2: Inhibition of Human BACE-2 Recombinant BACE-2 (extracellular domain, expressed in baculovirus and purified using standard methods) at 0.1 to 1 nM concentrations is incubated with the test compound at various concentrations for 1 hour at room temperature in 100 mM acetate buffer, pH 4.5, containing 0.1% CHAPS. […] Fluorescence increase was followed for 15 min, in 1 minute's intervals. […]
pIC50: −log10 of the molar value.
readout-label: pIC50

* CCOc1cccnc1Nc1ccc(F)c([C@]2(C(F)F)COCC(N)=N2)c1 | 6.80

a: COc1cccnc1Nc1ccc(F)c([C@]2(C)CO[C@@](C)(C(F)(F)F)C(N)=N2)n1
b: NC1=N[C@@](c2cc(Nc3ncccc3OCC(F)F)ccc2F)(C(F)F)COC1
c: NC1=N[C@@](c2cc(Nc3nccc4cc(Br)cnc34)ccc2F)(C(F)F)COC1
d: COCCOc1cnc2c(Nc3ccc(F)c([C@]4(C(F)F)COCC(N)=N4)c3)nccc2c1
Problem: Provide the items ranked by increasing pIC50. # the answer lists labels in the order requested
Result: d, a, b, c
(d: 5.09, a: 5.77, b: 6.66, c: 7.96)

* * *

Tested on: amyloid peptide 1-40 release
Assay: Test 4: Inhibition of Cellular Release of Amyloid Peptide 1-40
Type: cell-based
Settings: Cricetulus griseus; Chinese hamster ovary cells transfected with the human gene for amyloid precursor protein, 24 hours; read-out: Amyloid-β1-40 release IC50
readout-label: IC50 (nM)

Past entries and their recorded results:
• NC1=NC(c2cc(NCc3cc(Br)co3)ccc2F)(C(F)F)COC1 (stereo not drawn) = 740
• NC1=N[C@@](c2cc(Nc3nccn4c(Br)cnc34)ccc2F)(C(F)F)COC1 = 220

1: C[C@@]1(c2cc(Nc3ncnc4cc(C(F)(F)F)cnc34)ccc2F)CO[C@@](C)(C(F)(F)F)C(N)=N1
2: COc1cc([N+](=O)[O-])cnc1Nc1ccc(F)c([C@]2(C(F)F)COCC(N)=N2)c1
3: NC1=N[C@@](c2cc(Nc3nccc4cc(OCCCl)cnc34)ccc2F)(C(F)F)COC1
4: NC1=NC(CF)(c2cc(NCc3ccc(Br)cc3Cl)ccc2F)COC1 (stereo not drawn)
5: COc1cncnc1Nc1ccc(F)c([C@]2(C(F)F)COCC(N)=N2)c1
Problem: Sort by IC50, descending. I would appreciate it if you listed the labels in the requested order.
Result: 4, 2, 5, 3, 1
(4: 1400 nM, 2: 690 nM, 5: 430 nM, 3: 250 nM, 1: 46 nM)

* * *

Molecular target: human BACE-2 (Homo sapiens (Human), UniProt Q9Y5Z0)
Sequence (Q9Y5Z0 63-473): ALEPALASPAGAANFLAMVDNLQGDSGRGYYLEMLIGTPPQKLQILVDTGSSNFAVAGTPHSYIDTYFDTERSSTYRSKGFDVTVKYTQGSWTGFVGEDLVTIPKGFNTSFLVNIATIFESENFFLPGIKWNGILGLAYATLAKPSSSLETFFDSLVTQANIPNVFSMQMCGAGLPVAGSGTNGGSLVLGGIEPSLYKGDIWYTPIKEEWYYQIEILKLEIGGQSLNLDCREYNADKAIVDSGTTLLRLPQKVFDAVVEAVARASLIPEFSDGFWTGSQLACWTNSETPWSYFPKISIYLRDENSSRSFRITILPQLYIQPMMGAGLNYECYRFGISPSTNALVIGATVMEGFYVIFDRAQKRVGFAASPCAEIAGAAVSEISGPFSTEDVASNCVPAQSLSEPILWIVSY
Experiment: Test 2: Inhibition of Human BACE-2
Details: recombinant BACE-2, pH 4.5, fluorescence-quenched substrate
readout-label: IC50 (nM)

* C[C@@]1(c2nc(Nc3ncccc3C#N)ccc2F)CO[C@@](C)(C(F)(F)F)C(N)=N1 | 1600
* CC1(c2cccc(Nc3nsc4cc(Br)ccc34)c2)COCC(N)=N1 (centres unmarked) | 1900
* NC1=N[C@@](c2cc(Nc3nccn4ccnc34)ccc2F)(C(F)F)COC1 | 410

The measured values listed here are drawn from patent US9284284B2.
